# Emax listing for each entry below
# STUDY_TARGET: GST tagged LXRalpha LBD (ligand binding domain) (Homo sapiens, UniProt Q13133)
# Construct: purchased Invitrogen pv4655
# Sequence (Q13133 209-447 limits assumed): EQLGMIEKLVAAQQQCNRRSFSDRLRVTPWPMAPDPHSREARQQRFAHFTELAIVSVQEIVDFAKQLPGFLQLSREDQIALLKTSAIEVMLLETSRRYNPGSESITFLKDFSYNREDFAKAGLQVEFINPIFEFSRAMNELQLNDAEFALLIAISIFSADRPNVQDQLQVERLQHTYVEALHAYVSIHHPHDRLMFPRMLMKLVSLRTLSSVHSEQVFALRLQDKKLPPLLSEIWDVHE
# ASSAY_SUMMARY: LanthaScreen TR-FRET Liver X Receptor Coactivator Assay, LXR alpha-LBD (co-activator recruitment; IP and % Emax relative to T0901317)
# Format: biochemical
# CONDITION_DETAILS: efficacy at max dose in relation to reference T0901317, LXR alpha-LBD; read-out: LXR alpha actiivty at max dose (%)
# Source text: […]
Please respond with the number in % and leave the unit unwritten.

Before answering, review these 8 worked examples.
• CN(C)C(=O)c1ccc(N2CCC(CCCN(C)C(=O)[C@]3(C(F)(F)F)CCCO3)CC2)nc1Cl = 51
• CN(C)C(=O)c1ccc(N2CCC(CCCCN(C)C(=O)C(O)(c3ccccc3)C(F)(F)F)CC2)cc1Cl (stereo not shown) = 0
• CN(C)C(=O)c1ccc(N2CCC(CCCNC(=O)OCc3ccccc3)CC2)nc1Cl = 0
• COc1cccc([C@@](O)(C(=O)N(C)CCCC2CCN(c3ccc(C(=O)N4CCCC4)c(Cl)n3)CC2)C(F)(F)F)c1 = 0
• COc1cccc([C@@](O)(C(=O)N(C)CCCC2CCN(c3ccc(C(=O)N(C)C)c(Cl)c3)CC2)C(F)(F)F)c1 = 8
• CN(C)C(=O)c1ccc(N2CCC([C@H]3C[C@H]3CN(C)C(=O)[C@](O)(c3cccc(C4CC4)c3)C(F)(F)F)CC2)nc1Cl = 18
• CN(C)C(=O)c1ccc(N2CCC(CCCN(C)C(=O)[C@](N)(c3ccccc3)C(F)(F)F)CC2)nc1Cl = 8
• CN(C)C(=O)c1ccc(N2CCC(CCCN(C)C(=O)C(O)(c3ccccc3)C(F)(F)F)CC2)cc1Cl (single isomer, unassigned) = 14

I have this molecule here, `CN(C)C(=O)c1ccc(N2CCC([C@H]3C[C@H]3CN(C)C(=O)[C@](O)(c3cccc(OC4CC4)c3)C(F)(F)F)CC2)nc1Cl` , and I need its recorded Emax. 0

What would you report for `CN(C)C(=O)c1ccc(N2CCC(CCCN(C)C(=O)[C@@](C)(O)c3ccccc3)CC2)nc1Cl` ? 9

What would you report for `COc1cccc([C@@](O)(C(=O)NC[C@@H](F)CC2CCN(c3ccc(C(=O)N(C)C)c(Cl)n3)CC2)C(F)(F)F)c1` ? 7

What would you report for `CNC(=O)c1ccc(N2CCC3(CC2)C[C@H]3CCN(C)C(=O)[C@](O)(c2cccc(OC)c2)C(F)(F)F)cc1Cl` ? 12

What would you report for `COc1cccc([C@@](O)(C(=O)Nc2cccc(C3CCN(c4ccc(C(=O)N(C)C)c(Cl)n4)CC3)c2)C(F)(F)F)c1` ? 0

* * *

# STUDY_TARGET: GST tagged LXRbeta LBD (ligand binding domain) (Homo sapiens, UniProt P55055)
# Construct: purchased Invitrogen pv4658.pps
# Sequence (P55055 222-460 limits assumed): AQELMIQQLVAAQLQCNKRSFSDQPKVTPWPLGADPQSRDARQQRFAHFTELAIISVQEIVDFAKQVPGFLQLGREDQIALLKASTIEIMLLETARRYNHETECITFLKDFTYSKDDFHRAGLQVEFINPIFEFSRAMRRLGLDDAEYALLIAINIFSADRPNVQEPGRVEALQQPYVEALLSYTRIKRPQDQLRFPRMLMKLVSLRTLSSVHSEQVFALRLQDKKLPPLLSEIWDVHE
# ASSAY_SUMMARY: LanthaScreen TR-FRET Liver X Receptor Coactivator Assay, LXR beta-LBD (co-activator recruitment; IP and % Emax relative to T0901317)
# Assay type: biochemical
# CONDITION_DETAILS: efficacy at max dose in relation to reference T0901317, LXR beta-LBD; read-out: LXR beta actiivty at max dose (%)
REPORTED_PROPERTY: Emax (%)
Please respond with the number in % and leave the unit unwritten.

Before answering, review these 10 worked examples.
* CNC(=O)c1ccc(N2CCC([C@H]3C[C@H]3CNC(=O)[C@](O)(c3ccccc3)C(F)(F)F)CC2)nc1Cl | 39
* COc1cccc([C@@](O)(C(=O)N(C)CCCC2CCN(c3ccc(C(=O)N(C)C)c(C)n3)CC2)C(F)(F)F)c1 | 64
* CN(C)C(=O)c1ccc(N2CCC(CCCN(C)C(=O)[C@@](O)(c3ccccc3)C3CC3)CC2)nc1Cl | 71
* CC(C)=C(C(=O)N(C)CCCC1CCN(c2ccc(C(=O)N(C)C)c(Cl)n2)CC1)c1ccccc1 | 23
* CN(C)C(=O)c1ccc(N2CCC(CCCN(C)C(=O)[C@@](O)(c3cccc(C(F)(F)F)c3)C(F)(F)F)CC2)nc1Cl | 43
* CC(C)[C@](O)(C(=O)N(C)CCCC1CCN(c2ccc(C(=O)N(C)C)c(Cl)n2)CC1)c1ccccc1 | 68
* CN(C)C(=O)c1ccc(N2CCC(CCCN(C)C(=O)[C@](O)(c3cc(F)cc(Cl)c3)C(F)(F)F)CC2)nc1Cl | 78
* CN(C)C(=O)c1ccc(N2CCC([C@H]3C[C@@H](N(C)C(=O)[C@](O)(c4cccc(OC5CC5)c4)C(F)(F)F)C3)CC2)nc1Cl | 20
* COc1cccc([C@](O)(C(=O)N(C)CCCC2CCN(c3ccc(C(=O)N(C)C)c(Cl)n3)CC2)C(F)F)c1 | 63
* CN(C)C(=O)c1ccc(N2CCC(CCCNC(=O)[C@](O)(c3cccc(O)c3)C(F)(F)F)CC2)nc1Cl | 101

I have this compound here, `CC(C)N(C)C(=O)c1ccc(N2CCC3(CC2)C[C@H]3CCN(C)C(=O)[C@](O)(c2ccccc2)C(F)(F)F)cc1Cl` , and I need its recorded Emax. 40

What would you report for `COc1ccccc1[C@]1(C(=O)N(C)CCCC2CCN(c3ccc(C(=O)N(C)C)c(Cl)n3)CC2)CCCO1` ? 80

What would you report for `COc1cccc([C@@](O)(C(=O)Nc2ccc(C3CCN(c4ccc(C(=O)N(C)C)c(Cl)n4)CC3)cc2)C(F)(F)F)c1` ? 65
